pIC50 values for ROCK2 (Homo sapiens, UniProt O75116), compiled from several publications.
To interpret pIC50, take it as minus log10 of a concentration measured in moles per litre.

Previously resolved entries follow.
O=C(C1CC(F)(F)C1)N1Cc2ccc(-c3ncc(F)c(Nc4ccc(-c5cn[nH]c5)cc4F)n3)cc2C1 ... 6.67
COc1cccc(C(CO)NC(=O)c2cccc(-c3ccc4[nH]nc(C)c4c3)c2)c1 (stereo not shown) ... 8.30
[H][C@]1(Oc2ncccc2C(N)=O)C[C@]2(C[C@@H](Nc3nccc(-c4ccc(C#N)cc4)n3)C2)C1 (stereo partly shown) ... 6.69
COc1cccc(CNC(=O)c2cccc([C@@H](CO)NC(=O)c3ccc(-c4ccncc4)cc3)c2)c1 ... 9.22
O=C(NC1CCOC1)c1cc2ccc(-c3nccc(Nc4ccc(-c5cn[nH]c5)cc4)n3)cc2[nH]1 (stereo not shown) ... 6.92
Cn1c(C(=O)N2CC(F)(F)C2)cc2ccc(-c3nc4c(c(Nc5ccc(-c6cn[nH]c6)cc5)n3)CCC4)cc21 ... 7.30

Task item: # lookup: pIC50 of [H][C@]1(Oc2ncccc2C(N)=O)C[C@]2(C[C@@H](N3C(=O)N[C@@H](CC(C)C)C3=O)C2)C1 (stereo partly shown)
Reply: 8.10

Task item: Also need NC(=O)c1cccnc1O[C@H]1C[C@]2(C1)C[C@H](N1C(=O)NC(CC3CCCCC3)C1=O)C2 (single isomer, unassigned) , thanks.
Reply: 7.04

Task item: # repeat for Cc1sc(NC(=O)Cc2ccc(Oc3ncccc3C(N)=O)c(F)c2)nc1-c1cccc(F)n1
Reply: 7.68

Task item: Follow-up entry: CC(C)(C)OC(=O)n1cc(NC(=O)c2cc3ccc(-c4nccc(Nc5ccc6[nH]ncc6c5)n4)cc3[nH]2)cn1
Reply: 7.64

Task item: # iterate: COc1cc(-c2c[nH]nc2C(F)(F)F)ccc1C(=O)NCc1c(F)cccc1Cl
Reply: 7.37

Task item: Now consider CC(C)(O)COc1ccc2c(C(=O)N[C@H]3C[C@]4(C3)C[C@H](Oc3nc5ccccc5cc3C(N)=O)C4)cnn2c1C1CC1 (stereo partly shown) .
Reply: 8.06

Task item: Continue with Cn1c(N[C@H]2C[C@]3(C2)C[C@H](Oc2ncccc2C(N)=O)C3)nc2c(F)cccc21 (stereo partly shown)
Reply: 6.49

====

pIC50 values for ROCK2 (Homo sapiens, UniProt O75116), compiled from several publications.
pIC50: −log10 of the molar value.
Would you mind labelling by pIC50? At or over 8 is Y, under is N.

COc1cc(N2CCC3(CCN(C(=O)c4ccc(Cn5ccnc5)cc4)CC3)C2=O)ccc1-c1cn[nH]c1 ... N
O=C(Cc1ccc(-c2n[nH]c(=O)c3ccccc23)cc1)NC1CCC1 ... N
NC[C@@H](NC(=O)c1ccc(-c2cn[nH]c2)c(OCCO)c1)c1ccccc1 ... Y
NC(=O)c1cccnc1O[C@H]1C[C@]2(C1)C[C@H](N1C(=O)NC(CCCC(F)(F)F)C1=O)C2 (single isomer, unassigned) ... N

Task item: # check: pIC50 of N#Cc1ccc(C(=O)N[C@H]2C[C@]3(C2)C[C@H](Oc2nc4c(cc2C(N)=O)COCC4)C3)cc1F (stereo partly shown) is greater than or equal to 8
Reply: N

Task item: Then this molecule: O=C(NC1CCCC1)c1cccc([C@@H](CO)NC(=O)c2cc(-c3ccncc3)n[nH]2)c1
Reply: Y

Task item: Field entry: COc1cc(C(=O)NCc2nc3ccccc3s2)ccc1-c1cn[nH]c1
Reply: N

Task item: Okay, and Cc1ccc(-c2ccncc2)cc1C(=O)N[C@H](CO)c1cccc(C(=O)NC2CCCC2)c1 ?
Reply: Y

Task item: Repeat for the following molecule: CCc1nc(N2CC3(CCN(C(C)=O)CC3)N(Cc3cccc(OC)c3)C2=O)ccc1-c1cn[nH]c1
Reply: Y

====

Field: IC50. System: ROCK2 (Homo sapiens, UniProt O75116). Provenance: assorted publications.
Give just the numeric value; nM need not be written.

Consider the reported IC50 for these compounds:
COc1cc(N2CCC3(CCN(C(=O)c4ccc(-c5ccccc5)cc4)CC3)C2=O)ccc1-c1cn[nH]c1 ... 18
COc1cc(C(=O)NCc2cccc(C(=O)N(C)C)c2)ccc1-c1cn[nH]c1 ... 93.7
Cn1nccc1-c1ccc2sc(NC(=O)Cc3ccc(Oc4ncccc4C(N)=O)c(F)c3)nc2c1 ... 8
O=C(C1CC(F)(F)C1)N1CCc2ccc(-c3nccc(Nc4ccc5[nH]ncc5c4)n3)cc2C1 ... 360
COc1cc(C(=O)NCc2cc(F)ccc2F)ccc1-c1cn[nH]c1 ... 5.2

Task item: Endpoint output: IC50 of COC1(CNC(=O)c2cccc([C@@H](CO)NC(=O)c3ccc(-c4ccncc4)cc3)c2)CCC1 . Value?
Reply: 0.6

Task item: Next entry: COc1cc(N2CCC3(CCN(C(=O)c4cnc(C)cn4)CC3)C2=O)ccc1-c1cn[nH]c1
Reply: 110

====

Collected from the literature: IC50 of various compounds toward ROCK2 (Homo sapiens).
Form entry: value (nM) — number only.

CNC(=O)c1cc2ccc(-c3nc(Nc4ccc5[nH]ncc5c4)c4sccc4n3)cc2[nH]1 ... 160

Task item: Suppose we examine the compound Cc1cc2nc(NC(=O)Cc3ccc(Oc4ncccc4C(N)=O)c(F)c3)nn2cc1C ; what IC50 value has been reported?
Reply: 23

Task item: Follow-up item: COc1ccc(-n2ncc(C(=O)N[C@H]3C[C@]4(C3)C[C@H](Oc3nn(C)cc3C(N)=O)C4)c2C)cn1 (stereo partly shown)
Reply: 685

====

We begin with IC50 values for ROCK2 (Homo sapiens), as collected from the published literature.
Express your answer in nM, writing the number without its unit.

Some entries whose results are on file:
CC(C)N1CCC(NC(=O)c2cccc([C@@H](CO)NC(=O)c3ccc(-c4ccncc4)cc3)c2)CC1 ... 0.47
COc1cc(C(=O)N[C@H](CO)Cc2ccccc2)ccc1-c1cn[nH]c1 ... 5.7

Here is another molecule to look at.
Task item: Could you share what IC50 was measured for COc1cccc(C(CN)NC(=O)c2cc(CN3CCCC3)cc(-c3ccc4[nH]nc(C)c4c3)c2)c1 (stereo not shown) , tested on ROCK2 (Homo sapiens)?
Reply: 15

====

pIC50 for UniProtKB O75116, merged from several publications.
FYI, pIC50 means -log10 of a concentration in mol per litre.

Solved entries:
COc1cc(C(=O)NCc2ccc(F)c(F)c2)ccc1-c1cn[nH]c1 ... 8.10
O=C1N(c2ccc(-c3cn[nH]c3)cc2)CCC12CCN(S(=O)(=O)c1ccccc1)CC2 ... 6.48
NC[C@@H](C(=O)Nc1cc2ccncc2s1)c1ccc(COC(=O)[C@@H]2CCCN2CCO[N+](=O)[O-])cc1 ... 7.53
COc1cc(N2CCC3(CCN(C(=O)c4nnc(-c5ccccn5)[nH]c4=O)CC3)C2=O)ccc1-c1cn[nH]c1 ... 7.59
CC1(C(=O)N2CCc3ccc(-c4nccc(Nc5ccc(-c6cn[nH]c6)cc5)n4)cc3C2)CC(F)(F)C1 ... 6.62
COc1c(F)cccc1C(=O)N1CCC2(CC1)CCN(c1ccc(-c3cn[nH]c3)cc1)C2=O ... 6.95

Now look at this entry.
Task item: If you can, please state the reported pIC50 value of Cn1c(C(=O)N2CC(C(F)(F)F)C2)cc2ccc(-c3nccc(Nc4ccc(-c5cn[nH]c5)cc4)n3)cc21 .
Reply: 6.70

====

Literature-derived pIC50 for ROCK2 (Homo sapiens, UniProt O75116) follows.
pIC50: −log10 of the molar value.
yes means recorded pIC50 is 8 or above; no means it is below 8.

Cn1cc(-c2nc3cc(-n4nc(Nc5ccc6[nH]ncc6c5Cl)c5ccccc54)ccc3o2)cn1 ... no
[H][C@]1(Oc2ncccc2C(N)=O)C[C@]2(C[C@@H](Nc3nccc(N4CCC(F)(F)CC4)n3)C2)C1 (stereo partly shown) ... no

Task item: In plain terms: is recorded pIC50 at least 8 for CCNC[C@@H](NC(=O)c1ccc(-c2cn[nH]c2)c(OC)c1)c1c(F)cccc1F ?
Reply: yes

Task item: Next record, please: COc1cc(C(=O)N[C@H](CO)[C@H](O)c2ccccc2)ccc1-c1cn[nH]c1
Reply: yes

Task item: Now the same for CC(C)(O)COc1ccc2sc(NC(=O)Cc3ccc(Oc4ncccc4C(N)=O)c(F)c3)nc2c1
Reply: no

Task item: COc1cccc([C@@H](C)NC(=O)c2ccc(-c3c[nH]nc3C)cc2OC)c1 , same question.
Reply: yes

Task item: What do you get for COc1cccc(CNC(=O)c2ccc(-c3cn[nH]c3)c(C)c2)c1 ?
Reply: yes

Task item: Now try CN(CCC#N)C(=O)c1cc2ccc(-c3nccc(Nc4ccc(-c5cn[nH]c5)cc4)n3)cc2[nH]1 .
Reply: no

Task item: Continue with NC[C@@H](C(=O)Nc1cc2ccncc2s1)c1ccc(COC(=O)c2cccc(CCO[N+](=O)[O-])c2)cc1
Reply: yes
